These entries and their values trace back to the kinase profiling compilation of Christmann-Franck et al. (2016).

Reported residual activity values for a set of compounds
# target.or.test.system: TTBK1 (human)
# assay.remarks: radiometric filter-binding kinase assay
# condition.set: compound 0.1 µM
# number only, unit % dropped from output

Can you look up the measured residual activity of COc1ccc(N(C(=O)Nc2c(C)cccc2C)c2cc(Nc3ccc(N4CCN(C)CC4)cc3)ncn2)c(OC)c1 for me?
117

Reported residual activity, compound CNC(=O)C1[C@H]2O[C@@](C)([C@@H]1N)n1c3ccccc3c3c4c(c5c6ccccc6n2c5c31)C(=O)NC4 (some centres not stated) : ____
108

Please look up its residual activity: COc1ccc(-n2ncc3cnc(Nc4cc(OC)c(OC)c(OCCCN5CCN(C)CC5)c4)nc32)cc1
104

# input compound: Cc1ccc(-c2ccc3c(ccc4sc5c(c43)NC[C@@H](C)NC5=O)n2)cn1 ; wanted: its residual activity
103

Request the reported residual activity associated with NC(=O)c1cc(-c2ccnc(NC3CCCCC3)c2)nc(N2CCNCC2)c1
93

New cases:
Item C=CC(=O)N1CCC[C@@H](n2nc(-c3ccc(Oc4ccccc4)cc3)c3c(N)ncnc32)C1 has what recorded residual activity?
78

# query: residual activity of entry CN(C)C/C=C/C(=O)Nc1cccc(C(=O)Nc2ccc(Nc3nccc(-c4cccnc4)n3)cc2)c1
88

Need residual activity of CC1=C(CO)C(=O)O[C@@H]([C@@H](C)[C@H]2CC[C@H]3[C@@H]4C[C@H]5O[C@]56[C@@H](O)C=CC(=O)[C@]6(C)C4CC[C@]23C)C1 (some centres not stated) , thanks.
100

Record request: residual activity value, item COc1cc(O)c2c(c1)[C@H]1OC1C[C@H](O)[C@H](O)C(=O)/C=C\C[C@H](C)OC2=O (some centres not stated)
82

----------
# target.or.test.system: NEK6 (human) (UniProt Q9HC98)
# Sequence (Q9HC98 whole entry, looked up): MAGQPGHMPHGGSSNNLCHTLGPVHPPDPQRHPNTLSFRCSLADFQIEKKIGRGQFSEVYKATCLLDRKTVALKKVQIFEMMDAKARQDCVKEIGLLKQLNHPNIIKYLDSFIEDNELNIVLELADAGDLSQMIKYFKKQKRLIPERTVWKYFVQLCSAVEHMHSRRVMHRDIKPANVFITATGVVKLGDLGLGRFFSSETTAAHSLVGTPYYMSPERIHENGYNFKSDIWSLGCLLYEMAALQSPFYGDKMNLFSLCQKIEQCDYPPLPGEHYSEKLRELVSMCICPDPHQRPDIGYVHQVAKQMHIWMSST
# assay.remarks: radiometric filter-binding kinase assay
# condition.set: compound 0.1 µM
measurement.label: residual activity (%)
Give just the number in %; leave the unit off.

Before answering, review these 5 worked examples.
Value wanted: residual activity (NEK6 (human) (UniProt Q9HC98)) of entry NC1(c2ccc(-c3nc4ccn5c(=O)[nH]nc5c4cc3-c3ccccc3)cc2)CCC1
106

// fetch NEK6 (human) (UniProt Q9HC98) residual activity for c1ccc2c(-c3cnn4cc(-c5ccc(N6CCNCC6)cc5)cnc34)ccnc2c1
80

Give NEK6 (human) (UniProt Q9HC98) residual activity for O=C(O)c1ccc(-c2c[nH]c3ncc(-c4ccccc4)cc23)cc1C1CCCC1
104

Checklist item: residual activity tested on NEK6 (human) (UniProt Q9HC98), entry O=C(Nc1ccccc1-c1cn2c(CN3CCNCC3)csc2n1)c1cnc2ccccc2n1 , value?
84

Missing value: residual activity, NEK6 (human) (UniProt Q9HC98), entry Cc1ccc(-c2ccc3c(ccc4sc5c(c43)NC[C@@H](C)NC5=O)n2)cn1 . Fill in?
109

New cases:
Test system NEK6 (human) (UniProt Q9HC98); read-out residual activity; what value for CCc1cncnc1N1CCN(Cc2nc3cc(C(F)(F)F)ccc3[nH]2)CC1 ?
88

Param readout= residual activity; system= NEK6 (human) (UniProt Q9HC98); entry= Cc1cc(NC(=O)c2cccc(NC(=O)/C=C/CN(C)C)c2)ccc1Nc1nccc(-c2cccnc2)n1 ; returns value.
95

What reported residual activity corresponds to NC(=O)Nc1ccc2c(c1)/C(=C/c1cc(-c3cccnc3)c[nH]1)C(=O)N2 on NEK6 (human) (UniProt Q9HC98)?
92

Lab note: need residual activity for Cc1ccc(Sc2cnc(Nc3cccc(Br)n3)s2)cc1C(=O)N1CCN(C(=O)CN)CC1 on NEK6 (human) (UniProt Q9HC98), anyone have it?
103

----------
# target.or.test.system: UniProtKB Q92630
# Sequence (Q92630 whole entry, looked up): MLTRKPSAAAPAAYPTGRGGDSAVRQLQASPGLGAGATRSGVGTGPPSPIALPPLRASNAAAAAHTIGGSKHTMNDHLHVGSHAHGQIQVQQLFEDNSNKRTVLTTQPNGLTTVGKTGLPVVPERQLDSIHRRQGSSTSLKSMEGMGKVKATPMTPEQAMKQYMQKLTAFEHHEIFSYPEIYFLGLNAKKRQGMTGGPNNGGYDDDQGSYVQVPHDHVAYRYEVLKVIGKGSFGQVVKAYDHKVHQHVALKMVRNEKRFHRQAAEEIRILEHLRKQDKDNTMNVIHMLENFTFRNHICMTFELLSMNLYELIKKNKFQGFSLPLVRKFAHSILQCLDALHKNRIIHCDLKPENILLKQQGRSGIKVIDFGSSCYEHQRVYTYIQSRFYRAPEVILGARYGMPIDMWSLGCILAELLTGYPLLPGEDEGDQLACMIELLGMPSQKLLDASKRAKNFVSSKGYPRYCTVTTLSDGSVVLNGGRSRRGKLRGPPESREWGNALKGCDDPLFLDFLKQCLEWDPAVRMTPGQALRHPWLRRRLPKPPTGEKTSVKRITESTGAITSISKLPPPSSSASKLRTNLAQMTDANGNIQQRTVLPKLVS
# assay.remarks: radiometric filter-binding kinase assay
# condition.set: compound 1.0 µM
measurement.label: residual activity (%)
# unit: % | format: bare number

Fill in the recorded residual activity for this compound, with UniProtKB Q92630 as test system: O=C(Nc1nc2cc(C(F)(F)F)cc(NC3CC3)n2n1)c1cccnc1
90

Notebook entry, UniProtKB Q92630 assay: residual activity of NC(=O)c1c(NC(=O)C2CC2)sc2c1CCCC2 = ?
109

State its residual activity on UniProtKB Q92630: O=C(NOCC(O)CO)c1ccc(F)c(F)c1Nc1ccc(I)cc1Cl (stereo unspecified)
107

For UniProtKB Q92630, provide residual activity of Oc1ccc2ccccc2c1SSc1c(O)ccc2ccccc12 please.
68

Look up residual activity with UniProtKB Q92630 for this compound: CCn1c(-c2nonc2N)nc2cncc(CNC3CCNCC3)c21
89

Read the next record carefully.
# query: residual activity | item O=C(N[C@@H](COc1ccc2[nH]c(=O)[nH]c2c1)c1ccccc1)c1cccn(Cc2ccc(F)c(F)c2)c1=O | system: UniProtKB Q92630
101

----------
# target.or.test.system: PAK4 (human) (UniProt O96013)
# Sequence (O96013 whole entry, looked up): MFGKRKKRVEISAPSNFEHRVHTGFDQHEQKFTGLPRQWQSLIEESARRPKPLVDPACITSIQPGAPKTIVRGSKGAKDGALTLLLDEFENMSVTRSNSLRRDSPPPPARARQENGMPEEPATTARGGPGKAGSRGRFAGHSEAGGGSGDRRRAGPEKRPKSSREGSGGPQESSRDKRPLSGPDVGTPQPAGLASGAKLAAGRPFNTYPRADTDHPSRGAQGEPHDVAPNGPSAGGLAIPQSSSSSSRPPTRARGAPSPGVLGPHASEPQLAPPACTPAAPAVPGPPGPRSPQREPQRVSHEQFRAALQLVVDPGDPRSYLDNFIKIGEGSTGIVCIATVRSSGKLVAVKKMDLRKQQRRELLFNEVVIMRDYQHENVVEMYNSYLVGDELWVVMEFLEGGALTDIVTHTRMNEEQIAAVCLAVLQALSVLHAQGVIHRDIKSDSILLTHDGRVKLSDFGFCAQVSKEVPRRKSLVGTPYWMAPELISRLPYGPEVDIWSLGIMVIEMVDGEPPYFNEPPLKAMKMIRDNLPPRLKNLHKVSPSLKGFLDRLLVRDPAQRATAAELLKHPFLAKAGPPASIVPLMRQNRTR
# assay.remarks: radiometric filter-binding kinase assay
# condition.set: compound 10.0 µM
measurement.label: residual activity (%)
Report only the number, with the unit % understood.

Record request: residual activity value, item Cn1nc(Nc2ccc(F)cc2)c2c(N)ncnc21
97

---
What does the data say about its residual activity? Entry: NCC(=O)Nc1ccc(-n2nc(C(F)(F)F)cc2-c2ccc3c(ccc4ccccc43)c2)cc1
70

Query: residual activity; subject: O=C(Nc1ccccc1-c1cn2c(CN3CCNCC3)csc2n1)c1cnc2ccccc2n1
96

Sample C=CC(=O)N1CCC[C@@H](n2nc(-c3ccc(Oc4ccccc4)cc3)c3c(N)ncnc32)C1 — what was its residual activity?
42

Quick one: residual activity of O=C(N[C@@H](COc1ccc2[nH]c(=O)[nH]c2c1)c1ccccc1)c1cccn(Cc2ccc(F)c(F)c2)c1=O ?
67

----------
# target.or.test.system: DYRK1A (human) (UniProt Q13627)
# assay.remarks: radiometric filter-binding kinase assay
# condition.set: compound 1.0 µM
measurement.label: residual activity (%)
Could you give me the number in %? Just the number is fine.

Find the measured residual activity: item CN1C(=O)[C@@H](Cc2c[nH]c3ccccc23)NC1=S , target or system DYRK1A (human) (UniProt Q13627).
81

Please state recorded residual activity (tested on DYRK1A (human) (UniProt Q13627)) of CC1=C(CO)C(=O)O[C@@H]([C@@H](C)[C@H]2CC[C@H]3[C@@H]4C[C@H]5O[C@]56[C@@H](O)C=CC(=O)[C@]6(C)C4CC[C@]23C)C1 (stereo not given in full)
94

***
Give recorded residual activity with DYRK1A (human) (UniProt Q13627) for the following molecule: CCNc1nc(Nc2cc(F)c(C(=O)N3CCOCC3)cc2OC)ncc1C(F)(F)F
85

Form field - read-out: residual activity; system: DYRK1A (human) (UniProt Q13627); submitted item: O=C(NCCCNc1nc(Nc2cccc(CN3CCOCC3)c2)ncc1C1CC1)C1CCC1
106

Request body: readout residual activity, system DYRK1A (human) (UniProt Q13627), query C=CC(=O)N1CCC[C@@H](n2nc(-c3ccc(Oc4ccccc4)cc3)c3c(N)ncnc32)C1 . Return the value.
105

Notebook entry, DYRK1A (human) (UniProt Q13627) assay: residual activity of Oc1ccc2ccccc2c1SSc1c(O)ccc2ccccc12 = ?
47

Reported residual activity for DYRK1A (human) (UniProt Q13627), given CNc1nc(-c2ccc3c(N)n[nH]c3c2)cc(N2C[C@@H](C(=O)NC3CCCCC3)CC[C@H]2C)n1 ?
92

Item: C=C1C(=O)OC2C1CC/C(C)=C/CCC1(C)OC21 (stereo not given) Test system: DYRK1A (human) (UniProt Q13627) Read-out: residual activity Value: ?
120

Entry Cc1ccc(=O)n(-c2ccccc2)c1 , system DYRK1A (human) (UniProt Q13627): what residual activity was measured?
103

Form: Entry = Cc1cc(NC(=O)c2cccc(NC(=O)/C=C/CN(C)C)c2)ccc1Nc1nccc(-c2cccnc2)n1 | System = DYRK1A (human) (UniProt Q13627) | residual activity = ____
84

What measured residual activity is associated with CCc1cncnc1N1CCN(Cc2nc3cc(C(F)(F)F)ccc3[nH]2)CC1 on DYRK1A (human) (UniProt Q13627)?
94

For the record NC(=O)Nc1ccc2c(c1)/C(=C/c1cc(-c3cccnc3)c[nH]1)C(=O)N2 , what value of residual activity is listed for DYRK1A (human) (UniProt Q13627)?
11

----------
# target.or.test.system: INSRR (human) (UniProt P14616)
# Sequence (P14616 whole entry, looked up): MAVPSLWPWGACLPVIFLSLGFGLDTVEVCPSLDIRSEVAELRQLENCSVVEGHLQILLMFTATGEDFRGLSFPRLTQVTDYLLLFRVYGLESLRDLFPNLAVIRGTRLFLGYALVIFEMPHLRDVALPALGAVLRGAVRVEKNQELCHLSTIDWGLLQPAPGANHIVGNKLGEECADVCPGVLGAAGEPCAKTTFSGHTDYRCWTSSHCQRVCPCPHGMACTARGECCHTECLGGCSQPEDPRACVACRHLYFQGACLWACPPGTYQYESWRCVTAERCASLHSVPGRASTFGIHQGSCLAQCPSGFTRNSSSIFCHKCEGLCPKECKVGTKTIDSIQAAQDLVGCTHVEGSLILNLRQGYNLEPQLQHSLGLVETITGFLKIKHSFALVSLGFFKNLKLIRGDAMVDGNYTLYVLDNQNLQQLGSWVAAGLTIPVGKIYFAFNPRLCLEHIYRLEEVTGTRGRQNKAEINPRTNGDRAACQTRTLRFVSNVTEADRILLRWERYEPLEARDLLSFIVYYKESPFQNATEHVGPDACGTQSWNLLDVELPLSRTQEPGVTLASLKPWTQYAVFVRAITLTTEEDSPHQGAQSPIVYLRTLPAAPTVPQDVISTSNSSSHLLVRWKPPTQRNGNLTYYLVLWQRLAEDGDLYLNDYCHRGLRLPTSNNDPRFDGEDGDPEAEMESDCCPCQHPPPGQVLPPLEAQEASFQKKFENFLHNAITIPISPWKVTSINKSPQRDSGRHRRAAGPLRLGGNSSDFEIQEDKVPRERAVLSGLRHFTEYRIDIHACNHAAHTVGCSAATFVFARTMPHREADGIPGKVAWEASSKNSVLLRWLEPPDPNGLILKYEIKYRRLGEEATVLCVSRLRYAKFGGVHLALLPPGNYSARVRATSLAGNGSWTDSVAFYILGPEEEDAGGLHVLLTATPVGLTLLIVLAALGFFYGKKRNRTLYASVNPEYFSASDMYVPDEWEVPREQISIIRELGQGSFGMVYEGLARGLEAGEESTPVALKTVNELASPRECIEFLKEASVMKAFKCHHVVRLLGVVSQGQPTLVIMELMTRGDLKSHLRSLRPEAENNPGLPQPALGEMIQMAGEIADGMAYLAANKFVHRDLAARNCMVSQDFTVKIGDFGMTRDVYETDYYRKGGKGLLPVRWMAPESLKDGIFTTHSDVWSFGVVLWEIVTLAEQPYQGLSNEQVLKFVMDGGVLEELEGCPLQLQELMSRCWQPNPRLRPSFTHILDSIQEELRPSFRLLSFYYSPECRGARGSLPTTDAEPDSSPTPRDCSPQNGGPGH
# assay.remarks: radiometric filter-binding kinase assay
# condition.set: compound 10.0 µM
Label rule, in plain words: residual activity of 70% and up is Condition met, under 70% is Condition not met.

Check the entry Cc1ccc2c(c1)C(=O)[C@@]1(O)CCN(c3ccccc3)C1=N2 : does residual activity equal or exceed 70%?
Condition met

Continuing:
Could you please find out whether NC(=O)c1c(NC(=O)C2CC2)sc2c1CCCC2 has residual activity that meets 70% or exceeds it?
Condition not met

Hello, I need to know if CCNc1nc(Nc2cc(F)c(C(=O)N3CCOCC3)cc2OC)ncc1C(F)(F)F has measured residual activity not below 70%. Thanks!
Condition not met

Record CC(C)C[C@H](NC(=O)CNC(=O)c1cc(Cl)ccc1Cl)B1OC(=O)CC(CC(=O)O)(C(=O)O)O1 (stereo not given in full) ; criterion: residual activity no lower than 70%. Met?
Condition met

Answer whether residual activity of O=C1NC(=S)N[C@@H]1Cc1c[nH]c2ccccc12 is greater than or equal to 70%.
Condition met
